// merged dataset of log10 IC50 values, system = NAMPT (Homo sapiens, UniProt P43490), multiple refs
Sequence (P43490 whole entry): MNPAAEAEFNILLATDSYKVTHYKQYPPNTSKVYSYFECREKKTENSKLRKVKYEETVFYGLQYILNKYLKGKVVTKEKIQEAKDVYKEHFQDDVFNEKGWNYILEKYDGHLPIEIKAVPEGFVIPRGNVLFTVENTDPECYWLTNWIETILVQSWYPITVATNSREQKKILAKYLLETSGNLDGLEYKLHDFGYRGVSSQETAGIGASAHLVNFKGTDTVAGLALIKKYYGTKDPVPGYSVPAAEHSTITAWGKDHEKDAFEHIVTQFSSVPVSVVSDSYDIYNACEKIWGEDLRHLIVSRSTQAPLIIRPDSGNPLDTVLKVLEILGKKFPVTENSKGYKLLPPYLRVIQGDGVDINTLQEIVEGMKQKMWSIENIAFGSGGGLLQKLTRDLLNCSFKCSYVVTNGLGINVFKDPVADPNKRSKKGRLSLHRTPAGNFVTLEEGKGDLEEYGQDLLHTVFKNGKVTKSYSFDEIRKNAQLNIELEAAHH
Please keep in mind that the values are log10 of IC50 expressed in nM.

Some solved cases for reference:
CC(=O)NCC(C)CNC(=O)N(Cc1ccc(C#N)cc1)c1ncc(C(=O)NCCCn2ccnc2)s1 (centres unmarked)	1.36
O=C(NCc1ccn2ccnc2c1)c1ccc(-c2cnn(CC3CCC3)c2)o1	-0.75
O=C(CCC1CCCC1)Nc1ccc(NC(=O)NCc2ccn3ccnc3c2)cc1	-0.67
Cc1ccc(C(=O)N2CCC(Oc3ccc(NC(=O)C4CN(c5cccnn5)C4)cc3)CC2)s1	-0.32
O=C(Nc1ccc(OC2CCN(C(=O)CCC(F)(F)F)CC2)cc1)C1CN(c2cccnc2)C1	0.07
O=C(NCc1ccc2nccn2c1)c1cnc(N(CC2CCCO2)C(=O)CCc2cnoc2)s1 (centres unmarked)	0.10
O=C(NCc1ccn2ccnc2c1)c1ccc(-c2cnn(CC3CCCO3)c2)s1 (centres unmarked)	-0.77
CCCOCCNC(=O)N(Cc1ccc(F)cc1)c1ncc(C(=O)NCCCn2ccnc2)s1	-0.01
COCCC(=O)N(Cc1cnccc1C)c1ncc(C(=O)NCCCn2ccnc2)s1	0.77
O=C(NCc1ccn2ccnc2c1)c1ccc(C2CN(C(=O)c3ccoc3)C2)cc1	-0.17

Complete the entry with log10 IC50 for `CS(=O)(=O)N1CCC(c2ccc(C(=O)NCc3ccn4ccnc4c3)s2)CC1`
-0.77

Complete the entry with log10 IC50 for Cc1ccsc1C(=O)N1CCC(c2ccc(C(=O)NCc3ccn4ccnc4c3)cc2)C1 (centres unmarked)
-0.21

Complete the entry with log10 IC50 for `CC(C)CCN(Cc1ccccc1F)c1ncc(C(=O)NCCCn2ccnc2)s1`
3.50

Complete the entry with log10 IC50 for `O=C(NCc1ccn2ccnc2c1)Nc1ccc(C2CCN(C(=O)c3ccc(F)c(F)c3)CC2)cc1`
-0.03

Complete the entry with log10 IC50 for `O=C(NCc1ccn2ccnc2c1)c1ccc(C2CCN(C(=O)c3ccc(F)cc3F)CC2)cc1`
-0.39

* * *

// merged dataset of IC50 values, system = NAMPT (Homo sapiens, UniProt P43490), multiple refs
Answer with a number only, understood to be in nM.

O=C(Nc1ccc(OC2CCN(C(=O)c3ccccc3F)CC2)cc1)C1CN(c2ccnnc2)C1	32.1
CC(C)(C)OC(=O)N1CC=C(c2ccc(NC(=O)Nc3ccc4nccn4c3)cc2)CC1	0.714
O=C(NCc1ccn2ccnc2c1)c1ccc(C2CN(C(=O)c3ccsc3)C2)cc1	1.1
O=C(NCc1ccn2ccnc2c1)Nc1ccc(C2=CCN(C(=O)c3ccccc3)CC2)cc1F	0.427
O=C(NCCCn1ccnc1)c1cnc(N(Cc2ccc(F)cc2)C(=O)CN2CCN3CCCC3C2)s1 (stereo not drawn)	1.22
CC(C)C(=O)N1CC(c2ccc(C(=O)NCc3ccn4ccnc4c3)cc2)C1	0.267
O=C(NCc1ccn2ccnc2c1)c1ccc(C2CCN(C(=O)c3ccccc3Cl)C2)cc1 (stereo not drawn)	0.682
CCN(CCON(C(=O)CCCCCCNc1c(Nc2ccncc2)c(=O)c1=O)C1CCCCC1)C(=O)c1cccc(N)c1	62
CC(C)(O)CNC(=O)c1ccc(NC(=O)Nc2ccc3nccn3c2)cc1	0.663
COCC(C)C(=O)N1CC[C@H](Oc2ccc(C(=O)NCc3ccn4ccnc4c3)cc2)C1 (stereo partly drawn)	0.736

Complete the entry with IC50 for CC(C)OCC(=O)N1CCC(c2ccc(NC(=O)NCc3ccn4ccnc4c3)cc2)C1 (stereo not drawn)
0.375

Complete the entry with IC50 for `O=C(NCc1ccn2ccnc2c1)Nc1ccc(OC2CN(C(=O)c3ccccc3)C2)cc1`
0.258

Complete the entry with IC50 for `O=C(Nc1ccc(OC2CCN(C(=O)c3nccs3)CC2)cc1)C1CN(c2ccnnc2)C1`
32.2

Complete the entry with IC50 for `O=C(Nc1ccc(C2CCN(C(=O)C3CCOCC3)CC2)cc1)Nc1ccc2nccn2c1`
0.209

Complete the entry with IC50 for `O=C(Nc1ccc(OC2CN(C(=O)C3CCCC3)C2)cc1)C1CN(c2ccnnc2)C1`
17.7
